Molecular target: T1, human SLC34A2 (human, UniProt O95436 1-690)
T1 construct: whole, on cells; also called human solute carrier 34 A2; NaPi2b
T1 sequence (looked up): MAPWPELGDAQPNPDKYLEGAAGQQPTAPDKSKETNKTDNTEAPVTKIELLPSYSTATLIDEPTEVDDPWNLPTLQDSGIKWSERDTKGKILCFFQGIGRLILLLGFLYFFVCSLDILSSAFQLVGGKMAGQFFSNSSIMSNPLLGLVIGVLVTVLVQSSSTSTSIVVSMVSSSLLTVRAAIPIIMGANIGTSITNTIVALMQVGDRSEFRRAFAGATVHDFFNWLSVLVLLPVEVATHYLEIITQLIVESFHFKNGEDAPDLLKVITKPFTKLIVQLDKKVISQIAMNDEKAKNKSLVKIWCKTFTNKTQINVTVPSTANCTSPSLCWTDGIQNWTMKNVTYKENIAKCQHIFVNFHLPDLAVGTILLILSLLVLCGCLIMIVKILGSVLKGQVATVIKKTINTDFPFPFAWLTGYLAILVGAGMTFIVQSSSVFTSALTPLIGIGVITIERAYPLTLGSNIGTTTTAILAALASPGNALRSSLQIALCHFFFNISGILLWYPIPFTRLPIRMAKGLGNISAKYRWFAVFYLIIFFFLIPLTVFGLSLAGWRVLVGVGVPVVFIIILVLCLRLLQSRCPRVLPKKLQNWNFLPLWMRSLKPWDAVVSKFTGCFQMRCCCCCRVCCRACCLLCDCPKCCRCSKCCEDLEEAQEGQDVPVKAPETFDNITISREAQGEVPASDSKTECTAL
Assay: FACS, OVCAR3 cells
Measured property: Top (MFI)
Expressed in MFI, but write only the number.

GET /value?item= 63A11D5B4.p1.z3 hIgG1 (antibody, V domains shown, humanized hIgG1) VH: QVQLVQSGAEVKKPGASVKVSCKASGYTFITYNMHWVRQAPGQGLEWMGAIYPGSGDTSYNQKFKGRVTMTRDTSTSTVYMELSSLRSEDTAVYYCASSTIITTGAVDYWGQGTLVTVSS VL: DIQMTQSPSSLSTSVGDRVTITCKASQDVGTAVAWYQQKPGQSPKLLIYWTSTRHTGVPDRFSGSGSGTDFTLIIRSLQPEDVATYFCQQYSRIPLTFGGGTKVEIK &field=Top (MFI) returns 28600

GET /value?item= xi63A11D5B4 hIgG1 (antibody, V domains shown, chimeric, hIgG1) VH: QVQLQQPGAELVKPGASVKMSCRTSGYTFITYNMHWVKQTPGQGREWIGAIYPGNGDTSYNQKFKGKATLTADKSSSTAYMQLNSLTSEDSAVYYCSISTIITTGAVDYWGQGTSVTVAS VL: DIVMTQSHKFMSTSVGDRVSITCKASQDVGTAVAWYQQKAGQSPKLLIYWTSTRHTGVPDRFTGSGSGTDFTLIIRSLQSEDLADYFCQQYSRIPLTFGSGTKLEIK &field=Top (MFI) returns 32100

GET /value?item= 63A11D5B4 VH_P1/VL hIgG1 (antibody, V domains shown, PTM-derisked chimeric, hIgG1; that P1 is the SG version follows from the humanized .p1 chains; also called 63A11D5B4.p1 hIgG1) VH: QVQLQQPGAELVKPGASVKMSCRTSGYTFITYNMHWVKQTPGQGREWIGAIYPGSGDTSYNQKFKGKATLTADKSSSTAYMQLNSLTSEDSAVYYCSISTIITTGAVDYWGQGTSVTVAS VL: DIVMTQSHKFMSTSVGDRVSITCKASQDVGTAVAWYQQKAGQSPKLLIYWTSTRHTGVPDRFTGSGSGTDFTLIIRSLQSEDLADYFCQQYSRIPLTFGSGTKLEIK &field=Top (MFI) returns 28200

GET /value?item= 63A11D5B4.p1.z4 hIgG1 (antibody, V domains shown, humanized hIgG1) VH: QVQLVQSGAEVKKPGASVKVSCKASGYTFITYNMHWVRQAPGQGLEWMGAIYPGSGDTSYNQKFKGRVTMTRDTSTSTVYMELSSLRSEDTAVYYCASSTIITTGAVDYWGQGTLVTVSS VL: DIVMTQSPSSLSTSVGDRVTITCKASQDVGTAVAWYQQKPGQSPKLLIYWTSTRHTGVPDRFTGSGSGTDFTLIIRSLQPEDVATYFCQQYSRIPLTFGSGTKVEIK &field=Top (MFI) returns 29000

GET /value?item= 63A11D5B4.p1.z5 hIgG1 (antibody, V domains shown, humanized hIgG1) VH: QVQLVQSGAEVKKPGASVKVSCKTSGYTFITYNMHWVRQAPGQGLEWIGAIYPGSGDTSYNQKFKGRVTMTADTSTSTVYMELSSLRSEDTAVYYCSISTIITTGAVDYWGQGTLVTVSS VL: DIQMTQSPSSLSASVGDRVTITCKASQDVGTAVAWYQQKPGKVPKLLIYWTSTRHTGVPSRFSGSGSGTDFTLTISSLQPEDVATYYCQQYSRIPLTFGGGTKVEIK &field=Top (MFI) returns 28200
